# Tested on: human erythrocytes
# experiment_description: Hemolysis assay
# Assay type: cell-based
Square brackets hold non-standard residues; d marks the D form. Peptide text beside a SMILES is read from it. Nspe = C[C@H](NCC(=O)O)c1ccccc1; NDecylGly = CCCCCCCCCCNCC(=O)O; Nlys = NCCCCNCC(=O)O
Here the recorded HD10 is given for each entry.
observed_property: HD10 (µM)

compound	assayed_system	observed_property	result_value
C[C@@H](c1ccccc1)N(CC(N)=O)C(=O)CN(C(=O)CN(CCCCN)C(=O)[C@@H]1CCCN1C(=O)CN(C(=O)CN(CCCCN)C(=O)CN(C(=O)CN(C(=O)CN(CCCCN)C(=O)CN(C(=O)CN(C(=O)CNCCCCN)[C@@H](C)c1ccccc1)[C@@H](C)c1ccccc1)[C@@H](C)c1ccccc1)[C@@H](C)c1ccccc1)[C@@H](C)c1ccccc1)[C@@H](C)c1ccccc1 [1-Pro9] (H-[Nlys][Nspe][Nspe][Nlys][Nspe][Nspe][Nlys][Nspe]P[Nlys][Nspe][Nspe]-NH2)	human erythrocytes	HD10	165
CCCCCCCCCCNCC(=O)N(CCCCN)CC(=O)N(CC(=O)N(CC(=O)N(CCCCN)CC(=O)N(CC(=O)N(CC(N)=O)[C@@H](C)c1ccccc1)[C@@H](C)c1ccccc1)[C@@H](C)c1ccccc1)[C@@H](C)c1ccccc1 [C10-16 mer] (H-[NDecylGly][Nlys][Nspe][Nspe][Nlys][Nspe][Nspe]-NH2)	human erythrocytes	HD10	30
